measured.target: protein farnesyltransferase (Rattus norvegicus, UniProt Q02293+Q04631)
Construct: The enzyme is purified according to Reiss, Y., et al., Cell, 62: 81-88 (1990), utilizing steps one through three; from tissue; host or cells: rat brain
Sequence (Q02293 whole entry, one chain of several): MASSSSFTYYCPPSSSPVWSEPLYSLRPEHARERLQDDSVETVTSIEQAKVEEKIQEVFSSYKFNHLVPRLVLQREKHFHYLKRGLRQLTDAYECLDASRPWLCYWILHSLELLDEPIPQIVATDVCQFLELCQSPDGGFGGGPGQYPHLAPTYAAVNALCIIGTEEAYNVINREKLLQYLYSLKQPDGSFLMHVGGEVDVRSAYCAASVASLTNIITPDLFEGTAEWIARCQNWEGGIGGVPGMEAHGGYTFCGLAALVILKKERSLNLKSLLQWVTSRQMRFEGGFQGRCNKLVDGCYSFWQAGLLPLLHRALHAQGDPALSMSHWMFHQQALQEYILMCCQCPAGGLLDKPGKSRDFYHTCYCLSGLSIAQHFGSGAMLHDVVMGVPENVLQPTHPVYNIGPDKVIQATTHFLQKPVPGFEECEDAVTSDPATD
protocol.summary: Inhibition of farnesyltransferase (scintillation proximity assay, rat brain enzyme, biotin-K Ras B fragment substrate)
Type: biochemical
experimental.parameters: 1 × 10^-6 M (Table 2)
measured.quantity: % inhibition of farnesyltransferase at 1 × 10^-6 M (%)

molecule: CSCCC(NC(=O)c1ccc(NC(=O)C2CCCNC2)cc1-c1ccccc1)C(=O)O (stereo not shown) [Example 231]
measured.target: protein farnesyltransferase (Rattus norvegicus, UniProt Q02293+Q04631)
quantitative.readout: 50
//
molecule: CSCC[C@H](NC(=O)c1ccc(COCCCC2CCCCC2)cc1-c1ccccc1C)C(=O)O [Example 405]
measured.target: protein farnesyltransferase (Rattus norvegicus, UniProt Q02293+Q04631)
quantitative.readout: 98
//
molecule: CSCC[C@H](NC(=O)c1ccc(CNc2ccccc2C(N)=O)cc1-c1ccccc1)C(=O)O [Example 644]
measured.target: protein farnesyltransferase (Rattus norvegicus, UniProt Q02293+Q04631)
quantitative.readout: 54
//
molecule: CSCC[C@H](NC(=O)c1ccc(CS(=O)(=O)Cc2ccccc2)cc1-c1ccccc1C)C(=O)O [Example 555]
measured.target: protein farnesyltransferase (Rattus norvegicus, UniProt Q02293+Q04631)
quantitative.readout: 85
//
molecule: COc1ccccc1CNCc1ccc(C(=O)N[C@@H](CCSC)C(=O)O)c(-c2ccccc2)c1 [Example 650]
measured.target: protein farnesyltransferase (Rattus norvegicus, UniProt Q02293+Q04631)
quantitative.readout: 68
//
molecule: CSCC[C@H](NC(=O)c1ccc(NC[C@@H]2CSCN2)cc1-c1ccccc1)C(=O)O.Cl [Example 166]
measured.target: protein farnesyltransferase (Rattus norvegicus, UniProt Q02293+Q04631)
quantitative.readout: 97
//
molecule: CCSC[C@H](CC1CCCCC1)NCc1ccc(C(=O)N[C@@H](CCSC)C(=O)OCOC(=O)C(C)(C)C)c(-c2ccccc2C)c1 [Example 764]
measured.target: protein farnesyltransferase (Rattus norvegicus, UniProt Q02293+Q04631)
quantitative.readout: 88
//
molecule: CSCC[C@H](NC(=O)c1ccc(CN(CC(c2ccccc2)c2ccccc2)c2ccccc2)cc1-c1ccccc1C)C(=O)O [Example 509]
measured.target: protein farnesyltransferase (Rattus norvegicus, UniProt Q02293+Q04631)
quantitative.readout: 77
//
molecule: CSCC[C@H](NC(=O)c1ccc(CN(C)C(C)(C)Cc2ccccc2)cc1-c1ccccc1C)C(=O)O [Example 982]
measured.target: protein farnesyltransferase (Rattus norvegicus, UniProt Q02293+Q04631)
quantitative.readout: 64
//
molecule: CSCC[C@H](NC(=O)c1ccc(NC(=O)[C@@H]2CSCN2)cc1-c1ccccc1)C(=O)O [Example 165]
measured.target: protein farnesyltransferase (Rattus norvegicus, UniProt Q02293+Q04631)
quantitative.readout: 74
//
molecule: CSCC[C@H](NC(=O)c1ccc(CNCCS)cc1-c1ccccc1)C(=O)O [Example 626]
measured.target: protein farnesyltransferase (Rattus norvegicus, UniProt Q02293+Q04631)
quantitative.readout: 61
//
molecule: CCSC[C@H](CC1CCCCC1)NCc1ccc(C(=O)N[C@@H](CCSC)C(=O)O)c(-c2ccccc2C)c1 [Example 403]
measured.target: protein farnesyltransferase (Rattus norvegicus, UniProt Q02293+Q04631)
quantitative.readout: 99
//
molecule: CSCC[C@H](NC(=O)c1ccc(COC2CCN(Cc3ccccc3)C2)cc1-c1ccccc1C)C(=O)O (stereo partly shown) [Example 987]
measured.target: protein farnesyltransferase (Rattus norvegicus, UniProt Q02293+Q04631)
quantitative.readout: 93
//
molecule: CSCC[C@H](NC(=O)c1ccc(CNCc2ccc(N)cc2)cc1-c1ccccc1)C(=O)O [Example 653]
measured.target: protein farnesyltransferase (Rattus norvegicus, UniProt Q02293+Q04631)
quantitative.readout: 62
//
molecule: CSCC[C@H](NC(=O)c1ccc(COCc2ccc(CN(C)C)o2)cc1-c1ccccc1C)C(=O)O [Example 435]
measured.target: protein farnesyltransferase (Rattus norvegicus, UniProt Q02293+Q04631)
quantitative.readout: 96
//
molecule: CSCC[C@H](NC(=O)c1cc(Cc2ccccc2)c(COCCCc2ccccc2)cc1-c1ccccc1C)C(=O)O [Example 925]
measured.target: protein farnesyltransferase (Rattus norvegicus, UniProt Q02293+Q04631)
quantitative.readout: 87

Sourced from patent US6221865A
